Tested on: Human immunodeficiency virus 1
procedure.text: Antiviral activity against HIV1 wild type NL (4 to 3) infected in human MT2 cells measured after 4 to 5 days in presence of human serum by dual-luciferase reporter assay
Assay type: functional, organism-based
experimental.context: Human immunodeficiency virus 1, MT2
quantity: pEC50
Keep in mind that pEC50 stands for -log10 of concentration in molar terms.

Look over these answered cases.
Kindly note: Human immunodeficiency virus 1, C=C(C)[C@@H]1CC[C@]2(NCCN3CCC(S(C)(=O)=O)CC3)CC[C@]3(C)[C@H](CC[C@@H]4[C@@]5(C)CC=C(C6=CCC(CF)(C(=O)O)CC6)C(C)(C)[C@@H]5CC[C@]43C)[C@@H]12 (some centres undefined) , pEC50 value reported: 7.96

Kindly note: Human immunodeficiency virus 1, C=C(C)[C@@H]1CC[C@]2(NCCN3CCS(=O)(=O)CC3)CC[C@]3(C)[C@H](CC[C@@H]4[C@@]5(C)CC=C(C6=CCC(O)(C(=O)O)CC6)C(C)(C)[C@@H]5CC[C@]43C)[C@@H]12 (some centres undefined) , pEC50 value reported: 7.88

Further cases:
Kindly note: Human immunodeficiency virus 1, "C=C(C)[C@@H]1CC[C@]2(NCCN3CCC(S(C)(=O)=O)CC3)CC[C@]3(C)[C@H](CC[C@@H]4[C@@]5(C)CC=C(C6=CC[C@@H](C(=O)O)CC6)C(C)(C)[C@@H]5CC[C@]43C)[C@@H]12" , pEC50 value reported: 8.31

Kindly note: Human immunodeficiency virus 1, C=C(C)[C@@H]1CC[C@]2(NCCN3CCS(=O)(=O)CC3)CC[C@]3(C)[C@H](CC[C@@H]4[C@@]5(C)CC=C(C6=CCC(CC(=O)O)CC6)C(C)(C)[C@@H]5CC[C@]43C)[C@@H]12 (some centres undefined) , pEC50 value reported: 7.92

Kindly note: Human immunodeficiency virus 1, C=C(C)[C@@H]1CC[C@]2(NCCN3CCC(S(C)(=O)=O)CC3)CC[C@]3(C)[C@H](CC[C@@H]4[C@@]5(C)CC=C(C6=CCC(CCO)(C(=O)O)CC6)C(C)(C)[C@@H]5CC[C@]43C)[C@@H]12 (some centres undefined) , pEC50 value reported: 6.81

Kindly note: Human immunodeficiency virus 1, C=C(C)[C@@H]1CC[C@]2(NCCN3CCS(=O)(=O)CC3)CC[C@]3(C)[C@H](CC[C@@H]4[C@@]5(C)CC=C(C6=CCC(C)(C(=O)O)CC6)C(C)(C)[C@@H]5CC[C@]43C)[C@@H]12 (some centres undefined) , pEC50 value reported: 7.92

Kindly note: Human immunodeficiency virus 1, C=C(C)[C@@H]1CC[C@]2(NCCN3CCC(S(C)(=O)=O)CC3)CC[C@]3(C)[C@H](CC[C@@H]4[C@@]5(C)CC=C(C6=CCC(CC(F)F)(C(=O)O)CC6)C(C)(C)[C@@H]5CC[C@]43C)[C@@H]12 (some centres undefined) , pEC50 value reported: 8.02

Kindly note: Human immunodeficiency virus 1, C=C(C)[C@@H]1CC[C@]2(NCCN3CCS(=O)(=O)CC3)CC[C@]3(C)[C@H](CC[C@@H]4[C@@]5(C)CC=C(C6=CCC(OC)(C(=O)O)CC6)C(C)(C)[C@@H]5CC[C@]43C)[C@@H]12 (some centres undefined) , pEC50 value reported: 7.60

Kindly note: Human immunodeficiency virus 1, C=C(C)[C@@H]1CC[C@]2(NCCN3CCC(S(C)(=O)=O)CC3)CC[C@]3(C)[C@H](CC[C@@H]4[C@@]5(C)CC=C(C6=CCC(CCCO)(C(=O)O)CC6)C(C)(C)[C@@H]5CC[C@]43C)[C@@H]12 (some centres undefined) , pEC50 value reported: 7.80
